- test_system: COX 2 (Homo sapiens)
- Construct: purchased IBL Products Company, Hamburg, Germany
- Sequence (P35354 18-604): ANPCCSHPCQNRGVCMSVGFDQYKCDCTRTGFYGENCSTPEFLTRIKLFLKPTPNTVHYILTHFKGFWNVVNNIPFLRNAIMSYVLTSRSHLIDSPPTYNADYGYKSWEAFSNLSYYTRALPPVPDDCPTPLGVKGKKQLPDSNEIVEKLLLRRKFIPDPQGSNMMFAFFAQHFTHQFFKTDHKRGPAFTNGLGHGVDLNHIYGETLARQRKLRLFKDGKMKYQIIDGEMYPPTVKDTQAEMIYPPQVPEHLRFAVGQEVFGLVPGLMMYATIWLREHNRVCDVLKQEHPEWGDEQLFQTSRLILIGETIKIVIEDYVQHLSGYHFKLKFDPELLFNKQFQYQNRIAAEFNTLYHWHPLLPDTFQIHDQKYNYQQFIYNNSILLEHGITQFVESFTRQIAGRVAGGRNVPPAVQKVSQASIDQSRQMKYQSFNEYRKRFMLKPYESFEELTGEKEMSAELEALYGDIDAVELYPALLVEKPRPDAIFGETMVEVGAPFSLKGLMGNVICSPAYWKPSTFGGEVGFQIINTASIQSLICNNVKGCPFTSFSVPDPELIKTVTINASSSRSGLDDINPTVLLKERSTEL
- measurement_protocol: COX (human) inhibitor screening assay, COX 2
- Assay type: biochemical
endpoint_label: IC50 (µM)

IN: IC50 lookup needed for COc1cc(C=Cc2cc(OC)c(OC)c(OC)c2)cc(OC)c1OC [M3, 3,3′,4,4′,5,5′-Hexamethoxystilbene] , thanks.
OUT: 0.5

[a] Oc1cc(O)cc(C=Cc2ccc(O)c(O)c2)c1 [M10, 3,3′,4′,5-Tetrahydroxystilbene]
[b] Oc1ccc(C=Cc2cc(O)c(O)c(O)c2)cc1 [M9, 3,4,4′,5-Tetrahydroxystilbene]
[c] Oc1cc(C=Cc2cc(O)c(O)c(O)c2)cc(O)c1O [M8, 3,3′,4,4′,5,5′-Hexahydroxystilbene]
IN: Please rank these compounds by IC50 in descending order. # answer = labels listed in requested order
OUT: b, a, c
(b: 0.01 µM, a: 0.005 µM, c: 0.001 µM)

###

- System: DU-145
- measurement_protocol: Clonogenic test series (7 d) in DU-145 prostate cancer cells
- Format: cell-based
- measurement_parameters: Homo sapiens, DU-145, 168 h
endpoint_label: IC50 (µM)

IN: IC50 lookup needed for COc1cc(C=Cc2cc(OC)cc(OC)c2)cc(OC)c1 , thanks.
OUT: 25

IN: Another: Oc1cc(C=Cc2cc(O)c(O)c(O)c2)cc(O)c1O [M8, 3,3′,4,4′,5,5′-Hexahydroxystilbene]
OUT: 25

IN: Another: COc1cc(C=Cc2ccc(OC)c(OC)c2)cc(OC)c1
OUT: 30

IN: Another: Oc1ccc(C=Cc2cc(O)c(O)c(O)c2)cc1 [M9, 3,4,4′,5-Tetrahydroxystilbene]
OUT: 30

###

- Tested on: DU-145
- measurement_protocol: Clonogenic test series (7 d) in DU-145 prostate cancer cells
- Format: cell-based
- measurement_parameters: Homo sapiens, DU-145, 168 h
pIC50: −log10 of the molar value.
endpoint_label: pIC50

IN: Return pIC50 measured with DU-145 given this compound: Oc1ccc(C=Cc2cc(O)cc(O)c2)cc1 [Resveratrol, 3,4′,5-Trihydroxystilbene, reference compound]
OUT: 5.00

[a] Oc1cc(O)cc(C=Cc2ccc(O)c(O)c2)c1 [M10, 3,3′,4′,5-Tetrahydroxystilbene]
[b] Oc1cc(O)cc(C=Cc2cc(O)c(O)c(O)c2)c1 [M7, 3,3′,4,5,5′-Pentahydroxystilbene]
[c] COc1cccc(C=Cc2cc(OC)cc(OC)c2)c1 [M5, 3,3′,5-Trimethoxystilbene]
IN: Please order the records by their reported pIC50, lowest number first. # answer = labels listed in requested order
OUT: a, b, c
(a: 4.24, b: 4.64, c: 5.22)
